Source of measurements: ChEMBL document CHEMBL5291721

Measured AC50 on Adenosine receptor A1 (Homo sapiens, UniProt P30542) follows.
Sequence (P30542 whole entry): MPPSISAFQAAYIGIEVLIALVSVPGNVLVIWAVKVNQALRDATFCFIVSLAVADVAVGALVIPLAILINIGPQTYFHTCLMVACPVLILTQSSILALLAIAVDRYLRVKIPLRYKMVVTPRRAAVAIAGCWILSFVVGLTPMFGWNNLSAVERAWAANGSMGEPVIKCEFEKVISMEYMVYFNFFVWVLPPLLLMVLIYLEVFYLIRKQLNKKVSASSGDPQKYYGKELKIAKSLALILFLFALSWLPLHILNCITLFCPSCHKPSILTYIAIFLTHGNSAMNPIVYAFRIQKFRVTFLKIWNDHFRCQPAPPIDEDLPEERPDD

Known AC50 results, listed for orientation:
INSERT INTO measurements (molecule, result) VALUES
  ('COc1c(C)c2c(c(O)c1C/C=C(\C)CCC(=O)OCCN1CCOCC1)C(=O)OC2 [MYCOPHENOLATE MOFETIL]', '> 30 µM'),
  ('CCCC(CCC)C(=O)O[C@H]1C[C@H]2CC[C@@H](C1)[N+]2(C)C', '> 30 µM'),
  ('CCCCCCCCCCCC[N+](C)(C)CCOc1ccccc1', '> 30 µM');

Form field - read-out: AC50; system: Adenosine receptor A1 (Homo sapiens, UniProt P30542); submitted item: C#C[C@]1(O)CC[C@H]2[C@@H]3CCC4=CCCC[C@@H]4[C@H]3CC[C@@]21C; also: assay procedure not described here
> 30 µM

Okay, and CC(=O)NS(=O)(=O)c1ccc(N)cc1 [SULFACETAMIDE] ?
> 10 µM

Okay, and Cc1nc2ccc(CN(C)c3ccc(C(=O)N[C@@H](CCC(=O)O)C(=O)O)s3)cc2c(=O)[nH]1 ?
> 30 µM

Okay, and C[C@@H]1O[C@@H]1P(=O)(O)O ?
> 10 µM

Okay, and CC/C=C\C/C=C\C/C=C\CCCCCCCC(=O)O ?
> 30 µM

Okay, and NC1=NC(=O)C(c2ccccc2)O1 (centres undefined) ?
> 30 µM

Okay, and O=P(O)(O)C(O)(Cc1cccnc1)P(=O)(O)O ?
> 30 µM

Okay, and Cc1c(Cl)cccc1Nc1ccccc1C(=O)O ?
> 30 µM

Okay, and O=C(OCCN1CCOCC1)c1cccnc1Nc1cccc(C(F)(F)F)c1 [MORNIFLUMATE] ?
> 30 µM

Okay, and COC(=O)[C@@H]1CC2=CC(=O)CC[C@]2(C)[C@@]23O[C@@H]2C[C@@]2(C)[C@@H](CC[C@@]24CCC(=O)O4)[C@H]13 ?
> 30 µM

Okay, and Nc1nc(N)c2nc(-c3ccccc3)c(N)nc2n1 ?
> 30 µM

Okay, and CS(=O)(=O)c1ccc([C@@H](O)[C@@H](CO)NC(=O)C(Cl)Cl)cc1 ?
> 30 µM

Okay, and CC(=O)OCC(=O)[C@@]12OC3(CCCC3)O[C@@H]1C[C@H]1[C@@H]3CCC4=CC(=O)C=C[C@]4(C)[C@@]3(F)[C@@H](O)C[C@@]12C [AMCINONIDE] ?
> 10 µM

Okay, and CC(C)NCC1CCc2cc(CO)c([N+](=O)[O-])cc2N1 (centres undefined) ?
> 10 µM

Okay, and CC(C)c1c(C(=O)Nc2ccccc2)c(-c2ccccc2)c(-c2ccc(F)cc2)n1CC[C@@H](O)C[C@@H](O)CC(=O)O ?
> 30 µM

Okay, and CCCCN1CCCCC1C(=O)Nc1c(C)cccc1C (centres undefined) ?
> 30 µM

Okay, and COc1cc2c(cc1OC)C(=O)C(CC1CCN(Cc3ccccc3)CC1)C2 (centres undefined) ?
> 30 µM

Okay, and COc1ccc2c(c1)C(=O)N(CCc1ccc(S(=O)(=O)NC(=O)NC3CCCCC3)cc1)C(=O)C2(C)C ?
> 30 µM

Okay, and CC(=O)O[C@]1(C(C)=O)CC[C@H]2[C@@H]3C[C@H](C)C4=CC(=O)CC[C@]4(C)[C@H]3CC[C@@]21C [MEDROXYPROGESTERONE ACETATE] ?
> 30 µM

Okay, and CN1CCN(C(=O)OC2c3nccnc3C(=O)N2c2ccc(Cl)cn2)CC1 (centres undefined) ?
> 30 µM

Okay, and COc1ccc2cccc(CCNC(C)=O)c2c1 ?
> 30 µM
